Where do these numbers come from? They come from patent US20250289814A1.

Assay: Caco2 (A-B/B-A) permeability
Format: in vitro ADME
Conditions: human, Caco-2, pH 7.4, PappB-A/PappA-B; read-out: Caco2 efflux ratio (ER)
RECORDED METRIC: efflux ratio at 120 min, 5 μM

[[record]]
compound = "CCc1cc2ncc(CN3CC[C@@H](Oc4ccc(C(=O)NC)nc4)C3)cc2[nH]c1=O [Compound 11]"
recorded_metric = "efflux ratio at 120 min, 5 μM"
numeric_result = 9.69

[[record]]
compound = "CCc1cc2ncc(CN3CC[C@@H](N(C)c4ccc(C(=O)NC)nc4)C3)cc2[nH]c1=O (single isomer, unassigned; enantiomer 2) [Compound 17]"
recorded_metric = "efflux ratio at 120 min, 5 μM"
numeric_result = 9.14

[[record]]
compound = "CCc1cc2ncc(CN3C[C@@H](F)[C@@H](Oc4ccc(C(=O)NC)nc4)C3)cc2[nH]c1=O [Compound 8]"
recorded_metric = "efflux ratio at 120 min, 5 μM"
numeric_result = 11.8

[[record]]
compound = "CCc1cc2ncc(CN3CC4CN(c5ccc(C(=O)NC)nc5)CC4C3)cc2[nH]c1=O (stereo not shown) [Compound 40]"
recorded_metric = "efflux ratio at 120 min, 5 μM"
numeric_result = 8.32


###

System: DLD1-BRCA2−/− cells
Test: Cell proliferation assay in DLD1-BRCA2−/− cell lines (CellTiter-Glo, 7 days)
Assay type: cell-based
Experimental: BRCA2 (−/−) cells cultured in RPMI 1640+10% FBS were harvested and diluted to a density of 1×10^4 cells/mL and 2×10^4 cells/mL, respectively. Cells (40 μL/well) were seeded into 384-well cell culture plates. Plates were covered and incubated at 37° C., 5% CO2 overnight prior to the addition of test compounds or vehicle. […] Luminescence was measured using an Envision plate reader. The resultant data were analysed as follows; where LC is culture medium without cells: […]
pIC50: −log10 of the molar value.
RECORDED METRIC: pIC50

[[record]]
molecule = "CCc1cc2ncc(CN3CC[C@@H](N(C)c4ccc(C(=O)NC)nc4)C3)cc2[nH]c1=O (single isomer, unassigned; enantiomer 1) [Compound 16]"
result = "< 6.00"

[[record]]
molecule = "CCc1cc2ncc(CN3CC(Oc4ccc(C(=O)NC)nc4)C[C@@H]3C)cc2[nH]c1=O (single isomer, unassigned) [Compound 23]"
result = "< 6.00"

[[record]]
molecule = "CCc1cc2ncc(CN3CCC[C@@H](Oc4ccc(C(=O)NC)nc4)C3)cc2[nH]c1=O (single isomer, unassigned) [Compound 33]"
result = "< 6.00"


###

Biological target: Recombinant full length PARP2 (Homo sapiens (Human))
Sequence (Q9UGN5 whole entry): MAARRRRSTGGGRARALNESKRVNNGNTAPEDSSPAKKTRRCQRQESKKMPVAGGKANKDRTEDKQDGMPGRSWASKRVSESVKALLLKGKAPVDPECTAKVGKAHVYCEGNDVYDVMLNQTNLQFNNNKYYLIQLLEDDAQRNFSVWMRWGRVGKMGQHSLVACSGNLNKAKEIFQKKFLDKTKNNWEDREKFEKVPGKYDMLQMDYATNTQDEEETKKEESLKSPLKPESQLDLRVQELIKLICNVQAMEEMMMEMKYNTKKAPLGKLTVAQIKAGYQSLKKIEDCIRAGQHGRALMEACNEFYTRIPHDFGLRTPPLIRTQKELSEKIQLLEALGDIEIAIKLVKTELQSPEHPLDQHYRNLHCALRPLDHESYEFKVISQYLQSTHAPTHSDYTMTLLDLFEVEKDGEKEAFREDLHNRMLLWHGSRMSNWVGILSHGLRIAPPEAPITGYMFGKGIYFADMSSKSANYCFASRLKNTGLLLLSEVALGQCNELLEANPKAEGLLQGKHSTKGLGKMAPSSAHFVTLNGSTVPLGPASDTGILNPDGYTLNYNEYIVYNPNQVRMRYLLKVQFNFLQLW
Assay: FP assay PARP2 (fluorescence anisotropy probe displacement)
Settings: 60 nM PARP2, 8 nM fluorescent probe, 4 h, room temperature
pIC50: −log10 of the molar value.
RECORDED METRIC: pIC50

[[record]]
compound = "CCc1cc2cnc(CN3CC[C@@H](Oc4ccc(C(=O)NC)nc4)C3)cc2[nH]c1=O"
value_prefix = "<"
numeric_result = 5.00

[[record]]
compound = "CCc1cc2ncc([C@H](C)N3CC(Oc4ccc(C(=O)NC)nc4)C3)cc2[nH]c1=O"
value_prefix = "="
numeric_result = 5.51

[[record]]
compound = "CCc1nc2ccc([C@H](C)N3CC(Oc4ccc(C(=O)NC)nc4)C3)cc2[nH]c1=O (single isomer, unassigned) [Compound 52]"
value_prefix = "<"
numeric_result = 5.00

[[record]]
compound = "CCc1cc2ncc(C(C)N3CC(Oc4ccc(C(=O)NC)nc4F)C3)cc2[nH]c1=O (centres unmarked)"
value_prefix = "="
numeric_result = 5.32

[[record]]
compound = "CCc1cc2ncc(CN3CCC(Nc4ccc(C(=O)NC)nc4)C3)cc2[nH]c1=O (centres unmarked)"
value_prefix = "<"
numeric_result = 5.00

